Origin of values: patent US20060030616A1

Tested on: nine cancer cell lines
ASSAY_INFO: MTT cytotoxicity assay, 72 h, ranges over cell line panel
Type: cell-based
RUN_CONDITIONS: ovarian lines, read-out: IC50 range in ovarian cells
Reported IC50 values for a set of compounds

COMPOUND	RESULT
COC1OC(=O)C2C3CCC(O3)C12 (centres unmarked)	260 to 567 µM

Now let's try a different one.
# IC50 lookup, item O=C1OC(O)C2C3CCC(O3)C12 (centres unmarked)
275 to 333 µM

----------
Entries and their Inhibition of PP1 (%) values follow.
Test system: protein phosphatase 1 (PP1)
ASSAY_INFO: Inhibition of protein phosphatase 1, [32P]-phosphorylase substrate
Format: biochemical, chicken
RUN_CONDITIONS: initial screening at 100 mM (so in the source)
The reply should be a number in %, with the unit left off.

Recorded Inhibition of PP1 (%) for O=C1OC(O)C2C3CCC(O3)C12 (stereo not shown) , please?
9

Look up Inhibition of PP1 (%): COC(=O)C1C2C=CC(O2)C1C(=O)OC (stereo not shown)
46

Return reported Inhibition of PP1 (%); argument: CO[C@H]1OC(=O)C2C3CCC(O3)C21 (stereo partly shown)
13

// Inhibition of PP1 (%) lookup, key: CO[C@@H]1OC(=O)C2C3CCC(O3)C21 (stereo partly shown)
15

Which Inhibition of PP1 (%) value is on record for O=C1OC(=O)C2C3CCC(O3)C12 (stereo not shown) ?
90

What value of Inhibition of PP1 (%) has been recorded for this entry: O=C1NC(=O)C2C3CCC(S3)C12 (stereo not shown)
15

Value lookup for Inhibition of PP1 (%); key = COC(=O)C1C2C=CC(S2)C1C(=O)OC (stereo not shown)
3

----------
Tested on: A2780 cells
ASSAY_INFO: MTT cytotoxicity assay, 72 h
Assay type: cell-based, human
RUN_CONDITIONS: A2780, p53 wt; read-out: IC50 (mean ± SE) after 72 h continuous exposure
Description: Cells in a subconfluent phase are transferred to 96-well microtitre plates. L1210 cells are plated at a density of 1000 cells/well in 100 μl medium, while all other cell lines are plated at a density of 2000-25000 cells/well. […] The effect of phosphatase inhibition is tested in triplicate over a concentration range of […]−1×10^−8 M. Growth inhibitory effects are evaluated using the MTT assay and absorbance read at 540 mm. […]
Listed compounds paired with reported IC50
Answer format: numeric, µM implied, no suffix.

Please review the entries below; each comes with its answer.
COMPOUND	IC50 [µM]
O=C1OC(O)C2C3CCC(O3)C12 (centres unmarked)	333
COC1OC(=O)C2C3CCC(O3)C12 (centres unmarked)	567
O=C(O)C1C2C=CC(O2)C1C(=O)Oc1ccccc1 (centres unmarked)	317

Please examine the following record next.
Can you look up IC50 on A2780 cells for O=C1OC(=O)C2C3C=CC(O3)C12 (centres unmarked) ?
157

----------
STUDY_SYSTEM: UniProt:P48463
Sequence (P48463 whole entry): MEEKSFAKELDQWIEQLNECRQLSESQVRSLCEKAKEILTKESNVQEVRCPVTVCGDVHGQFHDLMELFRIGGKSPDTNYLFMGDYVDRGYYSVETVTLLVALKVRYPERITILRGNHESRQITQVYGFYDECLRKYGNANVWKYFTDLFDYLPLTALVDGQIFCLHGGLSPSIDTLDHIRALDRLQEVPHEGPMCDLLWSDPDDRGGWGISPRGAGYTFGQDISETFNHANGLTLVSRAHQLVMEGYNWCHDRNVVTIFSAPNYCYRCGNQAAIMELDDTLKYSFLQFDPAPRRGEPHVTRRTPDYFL
ASSAY_INFO: Inhibition of protein phosphatase 2A, [32P]-phosphorylase substrate
Type: biochemical, chicken
Parameters: dose or concentration left out as unconfirmed
Cut-off 10% on inhibition, inclusive. At or above means fulfilled; below means not fulfilled.

Determine whether this compound has inhibition no lower than 10%: CO[C@H]1OC(=O)C2C3CCC(O3)C21 (stereo partly shown)
fulfilled

Hello, I need to know if O=C1OC(=O)C2C3C=CC(O3)C12 (stereo not shown) [Compound 2, norcantharidin, reference compound] has measured inhibition not below 10%. Thanks!
fulfilled

Determine whether this compound has inhibition no lower than 10%: O=C1OCC2C3CCC(O3)C12 (stereo not shown)
fulfilled

Is it the case that O=C1OC(=O)C2C3CCC(O3)C12 (stereo not shown) has inhibition reaching or exceeding 10%?
fulfilled

Does the reported inhibition for CO[C@@H]1OC(=O)C2C3CCC(O3)C21 (stereo partly shown) fall at or above the 10% mark?
not fulfilled

I'd appreciate it if you could say whether COC(=O)C1C2C=CC(O2)C1C(=O)OC (stereo not shown) has inhibition at least equal to 10%.
not fulfilled

Assess whether reported inhibition for O=C1OC(O)C2C3CCC(O3)C12 (stereo not shown) sits at 10% or higher.
fulfilled
